The values you see were collected from ChEMBL document CHEMBL1123703.

system: UniProtKB P12527
measurementDescription: Compound was tested for its inhibition activity against 5-LO of the whole cell in vitro in rat.
valueType: IC50 (µM)

lineNotation | resultUnits | value
O=C(NO)c1ccc(-c2ccccc2)cc1 | µM | 3.3

====

system: Polyunsaturated fatty acid 5-lipoxygenase (Rattus norvegicus, UniProt P12527)
measurementDescription: Compound was tested for its inhibition activity against the 5-LO in isolated enzyme
valueType: IC50 (µM)

lineNotation | system | valueType | value
O=C(NO)c1ccc(-c2ccccc2)cc1 | Polyunsaturated fatty acid 5-lipoxygenase (Rattus norvegicus, UniProt P12527) | IC50 | 4

====

system: Polyunsaturated fatty acid 5-lipoxygenase (Rattus norvegicus)
measurementDescription: In vitro inhibitory activity against RBL-1 5-LO
Format: cell-based

compound | resultUnits | IC50
CCCCC/C=C\CCOc1ccc2cc(C(=O)NO)ccc2c1 | µM | 2.9
O=C(Cc1ccccc1)NO [PHENYLACETOHYDROXAMIC ACID] | µM | 300
CCCCCCCCOc1ccc2cc(C(=O)NO)ccc2c1 | µM | 7.1
O=C(NO)c1ccc(C(F)(F)F)cc1 | µM | 27
O=C(NO)c1ccccc1 [BENZOHYDROXAMATE] | µM | 110
O=C(NO)c1ccc(-c2ccc3ccccc3c2)cc1 | µM | 0.33
O=C(CCCc1ccccc1)NO [PHENYLBUTYRYLHYDROXAMIC ACID] | µM | 27
O=C(NO)c1ccc([N+](=O)[O-])cc1 | µM | 23
CC(C)N(O)C(=O)/C=C/c1ccc2ccccc2c1 | µM | 0.082
O=C(NO)c1ccc(O)cc1 | µM | 190
O=C(Cc1cccc2ccccc12)NO | µM | 27
O=C(NO)c1ccc2ccccc2c1 | µM | 14
C/C(=C\C(=O)N(C)O)c1ccc2ccccc2c1 | µM | 0.12
O=C(NO)c1ccc(I)cc1 | µM | 15
O=C(/C=C/c1ccccc1)NO | µM | 12
O=C(CCc1ccccc1)NO | µM | 87
N#Cc1ccc(C(=O)NO)cc1 | µM | 61
COc1ccc2cc(C(=O)NO)ccc2c1 | µM | 8.2
CN(O)C(=O)c1ccc2ccccc2c1 | µM | 1.3
CN(O)C(=O)/C=C/c1ccc2ccccc2c1 | µM | 0.1
C/C(=C\c1ccc2ccccc2c1)C(=O)N(C)O | µM | 0.47
Cc1cc(C)c(-c2ccc(C(=O)N(C)O)cc2)c(C)c1 | µM | 0.064
O=C(/C=C\c1ccccc1)NO | µM | 31
Cc1ccc(C(=O)NO)cc1 | µM | 65
O=C(NO)c1ccc(Br)cc1 | µM | 14
O=C(NO)c1ccc(-c2cccc3ccccc23)cc1 | µM | 0.18
CCCCCCCOc1ccc2cc(C(=O)NO)ccc2c1 | µM | 6.5
O=C(C#Cc1ccccc1)NO | µM | 46
O=C(/C=C/c1ccc2ccccc2c1)N(O)C1CCCCC1 | µM | 0.1

====

In this section we review reported IC50 values for a set of compounds.
system: Polyunsaturated fatty acid 5-lipoxygenase (Rattus norvegicus)
Sequence (P12527 whole entry): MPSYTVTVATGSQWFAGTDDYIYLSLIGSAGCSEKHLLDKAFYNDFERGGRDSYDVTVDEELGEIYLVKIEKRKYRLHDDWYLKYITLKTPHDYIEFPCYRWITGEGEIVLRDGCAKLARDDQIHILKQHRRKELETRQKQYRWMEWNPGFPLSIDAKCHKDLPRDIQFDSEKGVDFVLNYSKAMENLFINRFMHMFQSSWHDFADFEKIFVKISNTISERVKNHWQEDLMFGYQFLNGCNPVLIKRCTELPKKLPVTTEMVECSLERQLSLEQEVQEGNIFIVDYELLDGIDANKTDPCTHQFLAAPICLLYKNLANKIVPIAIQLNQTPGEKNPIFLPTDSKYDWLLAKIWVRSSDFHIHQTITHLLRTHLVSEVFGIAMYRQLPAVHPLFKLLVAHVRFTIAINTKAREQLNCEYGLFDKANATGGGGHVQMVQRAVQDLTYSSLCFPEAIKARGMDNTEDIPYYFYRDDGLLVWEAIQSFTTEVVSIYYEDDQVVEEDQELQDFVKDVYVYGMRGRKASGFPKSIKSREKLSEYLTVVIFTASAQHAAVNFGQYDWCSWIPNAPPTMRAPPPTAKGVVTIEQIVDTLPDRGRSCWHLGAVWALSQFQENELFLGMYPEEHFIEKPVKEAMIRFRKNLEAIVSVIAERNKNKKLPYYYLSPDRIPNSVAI
measurementDescription: In vitro inhibitory activity against RBL-1 5-LO
Type: cell-based

lineNotation | boundOperator | IC50 / nM
O=C(NO)c1cccc2ccccc12 | = | 43000
Nc1ccc(C(=O)NO)cc1 | > | 400000
O=C(Cc1ccc2ccccc2c1)NO | = | 19000
Cc1cc(C)c(-c2ccc(C(=O)NO)cc2)c(C)c1 | = | 290
O=C(/C=C/c1ccc2ccccc2c1)N(O)c1ccccc1 | = | 52
Cc1cc(C)c(-c2ccc(/C=C/C(=O)N(C)O)cc2)c(C)c1 | = | 22
